pKd values by entry
# TARGET_DESC: T1, biotinylated recombinant cynomolgus monkey trimeric ARG2 enzyme (Avi-cynoARG2-His10) (cynomolgus monkey, UniProt P78540 23-354 (human entry), biotinylated)
# T1 construct: also called cynomolgus ARG2
# T1 chain: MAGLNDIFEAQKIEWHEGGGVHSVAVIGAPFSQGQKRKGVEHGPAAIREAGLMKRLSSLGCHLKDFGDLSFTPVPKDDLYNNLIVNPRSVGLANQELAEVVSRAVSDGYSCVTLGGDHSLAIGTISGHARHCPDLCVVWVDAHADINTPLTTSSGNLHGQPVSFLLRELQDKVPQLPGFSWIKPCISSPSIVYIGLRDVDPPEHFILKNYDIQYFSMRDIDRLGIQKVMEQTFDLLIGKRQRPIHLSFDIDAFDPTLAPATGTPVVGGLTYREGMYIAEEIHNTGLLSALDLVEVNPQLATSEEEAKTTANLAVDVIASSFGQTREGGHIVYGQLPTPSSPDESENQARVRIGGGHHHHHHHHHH
# MEASUREMENT_PROTOCOL: BLI (OctetRED), biotinylated cyno ARG2 on streptavidin, Fab as analyte
pKd: −log10 of the molar value.

| BINDER | pKd |
| --- | --- |
| C0021128 Fab (Fab, V domains shown, Human Fab) VH: EVQLLESGGGLVQPGGSLRLSCAASGFTFQYEVAAWVRQAPGKGLEWVSAISGPIPKGYYADSVKGRFTISRDNSKNTLYLQMNSLRAEDTAVYYCARLRADLGLYMDLWGRGTLVTVSS VL: QSVLTQPPSVSAAPGQKVTISCSGSSSNIGNHYVSWYQQLPGTAPKLLIYDNAIESSGIPDRFSGSKSGTSATLGITGLQTGDGADYYCGTWDSNLSALVFGGGTKLTVL | 8.75 |
| C0021139 Fab (Fab, V domains shown, Human Fab; also called LO C0021139 Fab) VH: EVQLLESGGGLVQPGGSLRLSCAASGFTFQYDYQVWVRQAPGKGLEWVSAISGSGGSTYYADSVKGRFTISRDNSKNTLYLQMNSLRAEDTAVYYCARLRADLGLYMDLWGRGTLVTVSS VL: QSVLTQPPSVSAAPGQKVTISCSGSSSNIGNHYVSWYQQLPGTAPKLLIYDNSERTSGIPDRFSGSKSGTSATLGITGLQTGDEADYYCGTWDELTSNLVFGGGTKLTVL | 8.58 |
| C0021133 Fab (Fab, V domains shown, Human Fab) VH: EVQLLESGGGLVQPGGSLRLSCAASGFTFRYDHHVWVRQAPGKGLEWVSAISGSGGSTYYADSVKGRFTISRDNSKNTLYLQMNSLRAEDTAVYYCARLRADLGLYMDLWGRGTLVTVSS VL: QSVLTQPPSVSAAPGQKVTVSCSGSSSNIGNHYVSWYQQLPGTAPKLLIYDTTVLSSGIPDRFSGSKSGTSATLGITGLQTGDEADYYCGTWDELTSNLVFGGGTKLTVL | 8.78 |
